TARGET_SYSTEM: WRN [UniPro: Q14191 (WRN_HUMAN), N500-C946] (Homo sapiens (Human), UniProt Q14191)
Sequence (Q14191 500-946): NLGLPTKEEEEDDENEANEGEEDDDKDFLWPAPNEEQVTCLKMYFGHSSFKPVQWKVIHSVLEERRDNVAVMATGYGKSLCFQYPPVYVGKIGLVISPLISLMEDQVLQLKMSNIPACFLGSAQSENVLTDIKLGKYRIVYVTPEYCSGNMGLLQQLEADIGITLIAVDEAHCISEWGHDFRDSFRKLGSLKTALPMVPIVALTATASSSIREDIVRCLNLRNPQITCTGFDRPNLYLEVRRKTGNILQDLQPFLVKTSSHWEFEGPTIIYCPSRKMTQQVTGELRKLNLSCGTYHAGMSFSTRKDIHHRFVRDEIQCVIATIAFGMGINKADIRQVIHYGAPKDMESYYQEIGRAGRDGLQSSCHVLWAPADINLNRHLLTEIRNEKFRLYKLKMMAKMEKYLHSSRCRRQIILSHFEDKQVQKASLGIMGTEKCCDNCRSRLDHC
PROTOCOL: WRN ATPase assay (ADP-Glo)
Assay type: biochemical
PARTICULARS: WRN enzymatic activity assay
pIC50: −log10 of the molar value.
MEASUREMENT_NAME: pIC50

[ask] Need pIC50, item CCc1c(N2CCN(C(=O)C(N)=O)CC2)c(=O)n2nc(C3=CCOCC3)nc2n1CC(=O)Nc1ccc(C(F)(F)F)cc1Cl
[reply] > 7.00

[ask] Would you mind telling me what pIC50 value was observed for CCc1c(N2CCN(C(=O)CNC(=O)c3ccccc3F)CC2)c(=O)n2nc(C3=CCOCC3)nc2n1CC(=O)Nc1cc(C)cs1 ?
[reply] > 7.00

[ask] Which pIC50 is listed for CCc1c(N2CCN(C(=O)CNC(=O)c3ccccc3F)CC2)c(=O)n2nc(C3=CCOCC3)nc2n1CC(=O)Nc1cc(C(F)(F)F)n(C)n1 ?
[reply] 6.00 to 7.00

[ask] Can you share its pIC50? I mean this molecule: CCc1c(N2CCN(C(=O)c3ncnc4cn[nH]c34)CC2)c(=O)n2nc(C3=CCOCC3)nc2n1CC(=O)Nc1ccc(C(F)(F)F)cc1Cl
[reply] > 7.00

[ask] What value of pIC50 has been reported for the following molecule? CCc1c(N2CCN(C(=O)CNC(=O)Nc3ccccc3)CC2)c(=O)n2nc(C3=CCOCC3)nc2n1CC(=O)Nc1ccc(C(F)(F)F)cc1Cl
[reply] > 7.00

These entries and their values trace back to patent US20260015358A1.
